Every entry's value here was drawn from PubChem BioAssay (NCATS).

Each record here notes measured caspase-3 activation.
- assay_notes: Cellular Toxicity (caspase-3) H-4-II-E (AID 663);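 further: cells exposed to compound for 16 hr before readout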
- assay_context: H-4-II-E rat hepatoma, scaled: DMSO 0%, 100 µM tamoxifen 100%; at 92.2 µM (top of the series)
Results filed as inconclusive are left out.
Please respond with the number in % and leave the unit unwritten.

The examples below pair each entry with its known result.
- molecule: "CCCCC(CC)C(=O)O (stereo not given)"
  metric: "caspase-3 activation"
  quantitative_readout: -0.144
- molecule: "Nc1cccc([N+](=O)[O-])c1"
  metric: "caspase-3 activation"
  quantitative_readout: 0.491
- molecule: "CC(=O)Nc1ccccc1C"
  metric: "caspase-3 activation"
  quantitative_readout: 1.63
- molecule: "O=C(O)CCSSCCC(=O)O"
  metric: "caspase-3 activation"
  quantitative_readout: -0.00623
- molecule: "COc1ccc(N)c(C)c1"
  metric: "caspase-3 activation"
  quantitative_readout: 0.764

Please give the measured caspase-3 activation for this molecule: CCCCCO
-0.271

Item under review: O=C(O[C@@H](C(=O)O)[C@@H](OC(=O)c1ccccc1)C(=O)O)c1ccccc1 . Reported caspase-3 activation?
0.201

Consider the molecule CCN(C(=O)N(CC)c1ccccc1)c1ccccc1 and give its measured caspase-3 activation.
2.86

Which caspase-3 activation value is on record for c1ccc2n[nH]nc2c1 ?
-0.743

// returns reported caspase-3 activation for input O=C(O)c1ccccc1Cl
0.73

* * *

- assay_notes: Cellular Toxicity (caspase-3) H-4-II-E (AID 663);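 further: cells exposed to compound for 16 hr before readout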
- assay_context: H-4-II-E rat hepatoma, scaled: DMSO 0%, 100 µM tamoxifen 100%; at 92.2 µM (top of the series)
Results filed as inconclusive are left out.
Entries annotated with measured caspase-3 activation
Kindly provide the numeric value in % only, without the unit symbol.

Entry CC(=O)OCc1ccco1 has what caspase-3 activation?
-0.245

* * *

- system_under_test: Nuclear receptor subfamily 1 group I member 2 (Rattus norvegicus) (UniProt Q9R1A7)
- Sequence (Q9R1A7 whole entry, looked up): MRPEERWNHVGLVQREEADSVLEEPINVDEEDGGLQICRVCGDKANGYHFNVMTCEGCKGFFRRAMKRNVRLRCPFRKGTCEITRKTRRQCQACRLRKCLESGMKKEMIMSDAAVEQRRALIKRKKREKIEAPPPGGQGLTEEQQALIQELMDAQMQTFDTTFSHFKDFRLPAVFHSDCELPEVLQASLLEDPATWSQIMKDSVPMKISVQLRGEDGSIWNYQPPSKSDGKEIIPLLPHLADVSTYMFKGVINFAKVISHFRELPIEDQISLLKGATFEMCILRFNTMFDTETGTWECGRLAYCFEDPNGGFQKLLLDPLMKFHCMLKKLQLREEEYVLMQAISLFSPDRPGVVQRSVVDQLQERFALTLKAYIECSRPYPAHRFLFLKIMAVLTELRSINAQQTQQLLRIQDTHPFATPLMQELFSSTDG
- assay_notes: qHTS assay for small molecule activators of the rat pregnane X receptor (rPXR) signaling pathway (AID 651751); further: 0% is about no effect
- assay_context: rPXR reporter cells, luciferase (One-Glo), 24 h
Each entry below carries its recorded max response.
# output: bare number, implied unit %

- molecule: "CC=O"
  metric: "max response"
  quantitative_readout: -4.58
- molecule: "Cc1c(C(=O)O)cccc1[N+](=O)[O-]"
  metric: "max response"
  quantitative_readout: 0.0854
- molecule: "Cc1ccc(C(C)(C)C)cc1"
  metric: "max response"
  quantitative_readout: -0.498

Item c1ccc2c(c1)ccc1ncccc12 has what recorded max response?
10.2

For the molecule shown here, CC(O)CC(C)O (configuration not stated) , give the reported max response.
6.25

* * *

Parameter caspase-3 activation: see the listing below.
- assay_notes: Cellular Toxicity (caspase-3) Hek293 (AID 664);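 further: cells exposed to compound for 16 h at 37 °C before readout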
- assay_context: HEK293 caspase-3 activation, DMSO = 0%, 100 µM tamoxifen = 100%; at 92.2 µM (top of the series)
Results filed as inconclusive are left out.
Respond with the bare value in %.

Examples from the recorded data:
- compound: "Cc1cscn1"
  caspase-3 activation (%): 1.04
- compound: "O=Cc1ccc(C(=O)O)cc1"
  caspase-3 activation (%): -1.79
- compound: "CC(=O)Nc1ccc(C)cc1"
  caspase-3 activation (%): 0.349
- compound: "Nc1ccccc1S(=O)(=O)O"
  caspase-3 activation (%): 1.83
- compound: "O=C(O)c1ccccc1C(=O)O"
  caspase-3 activation (%): 3.14

Find the recorded caspase-3 activation belonging to CCCCCCCCCCCCOCC1CO1 (configuration not stated) and report it.
2.47

Entry Oc1cccc(Nc2ccccc2)c1 has what caspase-3 activation?
-0.23

Request the reported caspase-3 activation associated with C[C@@H]1CC2(OC3C[C@@]4(C)C5=CC[C@H]6C(C)(C)C(O[C@@H]7OC[C@@H](O)[C@H](O)[C@H]7O)CC[C@@]67C[C@@]57CC[C@]4(C)C31)OC(O)C1(C)OC21 (some centres not stated)
2.55

Please give the measured caspase-3 activation for this compound: c1ccc(Oc2ccccc2)cc1
-1.47

Name the recorded caspase-3 activation for CC(=O)c1nccs1 .
4.27

Which caspase-3 activation is reported for this compound? CCOCCOCC
4.51

So what does the record say about caspase-3 activation for C(=C/c1ccccc1)/c1ccccc1 ?
5.17

Field request: caspase-3 activation | item: CC1CCC2CC1C2(C)C (configuration not stated)
-2.62

Dear colleague, I am looking for the recorded caspase-3 activation of the following compound: O=[N+]([O-])c1cc(C(F)(F)F)ccc1Cl
-0.647

Record request: caspase-3 activation value, item CCOc1cccc(N)c1
-0.477

Field request: caspase-3 activation | item: CCCCC(CC)COCC1CO1 (configuration not stated)
-2.33

Quick check: caspase-3 activation of C=C(C)OC(C)=O ?
-0.975

* * *

- assay_notes: qHTS assay for cell viability of HEK293 cells (AID 743288); further: on the % scale 0 is the no-effect control and ±100 the full control effect; nearly all actives have a fitted effect of over 50% in size
- assay_context: ATP luminescence (CellTiter-Glo), 18 h, stronger effect = lower value
- Description: National Center for Advancing Translational Sciences [NCATS] NIH Chemical Genomics Center [NCGC] U.S. Environmental Protection Agency [EPA] National Institutes of Environmental Health Sciences [NIEHS] National Toxicology Program [NTP] […] The CellTiter-Glo Luminescent Cell Viability Assay (Promega, Madison, WI) is a homogeneous method to determine the number of viable cells in culture based on quantitation of the ATP present, which signals the presence of metabolically active cells. […]
Inconclusive results are not listed.
// reported max response per item
Express your answer in %, writing the number without its unit.

Guide cases for max response, answers given:
- smiles_str: "Oc1cccc(Nc2ccccc2)c1"
  max response / %: 2.73
- smiles_str: "COC(=O)c1ccccc1"
  max response / %: 2.22

Request the reported max response associated with CSCCC=O
1.22

Request the reported max response associated with Nc1c(Cl)cc(Cl)cc1Cl
-2.95

Reported max response, compound CC(=O)c1cc(C)oc1C : ____
-13.5

* * *

- assay_notes: Cell Viability - LYMP1-003 - Assay at 40 hr (AID 964); further: on the % scale 0 is the no-effect control and ±100 the full control effect; nearly all actives have a fitted effect of over 60% in size
- assay_context: LYMP1-003 lymphoblastoid viability; series mostly up to 92.2 µM
Records with an inconclusive call do not appear. The source made the active and inactive calls. Calls come from the whole dose curve; as a rule, active = well fitted cell-killing curve with a large enough effect; inconclusive = small, poorly fitted or top-dose-only effect; inactive = flat fitted curve, though single readings scatter.
# valid calls are label 1 for active, label 0 for inactive; nothing else

Known results for compounds:
- compound: "Nc1cccc(O)c1"
  qualitative_label: "label 0"
- compound: "CCCCCO"
  qualitative_label: "label 0"

Record request — test call for CNc1ccc([N+](=O)[O-])cc1
label 0

Test call for this compound, please: O=C(O)c1cccc(Cl)c1Cl
label 0

Per the records of this test, what outcome belongs to CCCCOCCOCCOCCCC ?
label 0

Could you check what this test reported for CCCCCCC=O ?
label 0

// outcome(item) with item = Nc1cc([N+](=O)[O-])ccc1C(=O)O
label 0

* * *

- assay_notes: Cellular Toxicity (caspase-3) Mesangial (AID 660);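 further: combined caspase 3 and 7 activity read by Caspase-Glo luminescence; cells exposed to compound for 16 h before the caspase read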
- assay_context: mesangial cells, normalized: DMSO 0%, 100 µM tamoxifen 100%; at 91.7 µM (top of the series)
caspase-3 activation values, listed per item
# value in %; strip the unit string

- molecule: "O=C(O)c1ccccc1Cl"
  metric: "caspase-3 activation"
  quantitative_readout: -0.834
- molecule: "CNc1ccccc1"
  metric: "caspase-3 activation"
  quantitative_readout: 1.7
- molecule: "C=CCCCCCC"
  metric: "caspase-3 activation"
  quantitative_readout: 0.339
- molecule: "O=C(O)c1ccc(Cl)c(Cl)c1"
  metric: "caspase-3 activation"
  quantitative_readout: -0.246
- molecule: "C/C(C=O)=C/c1ccccc1"
  metric: "caspase-3 activation"
  quantitative_readout: -0.174

GET /values?readout=caspase-3 activation&item= C[C@@H]1CC2(OC[C@]3(C)O[C@H]23)O[C@H]2C[C@@]3(C)[C@@H]4CC[C@H]5C(C)(C)C(O[C@@H]6OC[C@@H](O)[C@H](O)[C@H]6O)CC[C@@]56C[C@@]46CC[C@]3(C)[C@@H]12 (stereo partly drawn)
2.15

Recorded caspase-3 activation of CCOCCOCC , please.
0.404

Entry Cc1cc(C(=O)O)ccc1[N+](=O)[O-] : reported caspase-3 activation = ?
0.159

* * *

- system_under_test: Nuclear receptor subfamily 1 group I member 2 (Rattus norvegicus) (UniProt Q9R1A7)
- assay_notes: qHTS assay for small molecule activators of the rat pregnane X receptor (rPXR) signaling pathway (AID 651751); further: 0% is about no effect
- assay_context: rPXR reporter cells, luciferase (One-Glo), 24 h
Calls of active or inactive are those of the source. The rule behind the calls is not given here.
Some molecules, each annotated with its measured max response.

Previously resolved entries follow.
- smiles_str: "COc1cccc2sc(N)nc12"
  result: "8.89% (inactive)"
- smiles_str: "CN(C)c1cccc(O)c1"
  result: "1.23% (inactive)"

Fill in: max response of CCOC(=O)OCC is ___
-3.24% (inactive)
